Task for the reader: assign each of the following substances its reported target mRNA knockdown.
# recorded conditions: siRNA; also: test system not given here
HELM strings list units from the 5' end as sugar, base in round brackets, then linkage (d deoxyribose, r ribose, m 2'-O-methyl, p phosphodiester). Strings are as the collection lists them, not checked against the first reports. ss, as = sense and antisense strand; [fl2r] = 2'-fluoro
Your reply should be a number followed by the unit it is expressed in.

Here are 4 substances together with their reported answers.
RNA1{m(G)p.r(G)p.m(C)p.r(C)p.m(A)p.r(A)p.m(A)p.r(G)p.m(U)p.r(A)p.m(A)p.r(U)p.m(C)p.r(G)p.m(U)p.r(G)p.m(G)p.r(U)p.m(U)p.r(T)p.r(T)}|RNA2{r(A)p.r(A)p.r(C)p.r(C)p.r(A)p.r(C)p.r(G)p.r(A)p.r(U)p.r(U)p.r(A)p.r(C)p.r(U)p.r(U)p.r(U)p.r(G)p.r(G)p.r(C)p.r(C)p.r(T)p.r(T)}$$$RNA1{StrandType:ss}|RNA2{StrandType:as}$ | 37%
RNA1{r(G)p.r(A)p.r(C)p.r(G)p.r(U)p.r(A)p.r(A)p.r(A)p.r(C)p.r(G)p.r(G)p.r(C)p.r(C)p.r(A)p.r(C)p.r(A)p.r(A)p.r(G)p.r(U)p.r(U)p.r(C)}|RNA2{[fl2r](A)p.m(C)p.[fl2r](U)p.m(U)p.[fl2r](G)p.m(U)p.[fl2r](G)p.m(G)p.[fl2r](C)p.m(C)p.[fl2r](G)p.m(U)p.[fl2r](U)p.m(U)p.[fl2r](A)p.m(C)p.[fl2r](G)p.m(U)p.[fl2r](C)p.m(G)p.[fl2r](C)}$$$RNA1{StrandType:ss}|RNA2{StrandType:as}$ | 73.8%
RNA1{r(U)p.r(C)p.r(U)p.r(C)p.r(G)p.m(U)p.m(A)p.r(A)p.r(G)p.r(G)p.r(A)p.r(C)p.r(G)p.r(A)p.m(A)p.r(A)p.m(C)p.r(G)p.r(A)p.r(T)p.r(T)}|RNA2{r(U)p.r(C)p.r(G)p.r(U)p.r(U)p.r(U)p.r(C)p.r(G)p.r(U)p.r(C)p.r(C)p.r(U)p.m(U)p.r(A)p.r(C)p.r(G)p.r(A)p.r(G)p.r(A)p.r(T)p.r(T)}$$$RNA1{StrandType:ss}|RNA2{StrandType:as}$ | 52%
RNA1{r(A)p.r(G)p.r(C)p.r(U)p.r(C)p.r(U)p.r(U)p.r(U)p.r(G)p.r(U)p.r(C)p.m(A)p.r(C)p.r(C)p.r(U)p.r(C)p.r(U)p.r(C)p.r(U)p.r(T)p.r(T)}|RNA2{r(A)p.r(G)p.r(A)p.r(G)p.r(A)p.r(G)p.r(G)p.r(U)p.r(G)p.r(A)p.m(C)p.m(A)p.r(A)p.r(A)p.r(G)p.r(A)p.r(G)p.r(C)p.r(U)p.r(T)p.r(T)}$$$RNA1{StrandType:ss}|RNA2{StrandType:as}$ | 37%

With those in mind, consider the next substance.
# input What value of measured target mRNA knockdown is listed for "RNA1{m(U)p.r(A)p.r(G)p.r(C)p.r(C)p.r(A)p.r(G)p.r(A)p.r(G)p.r(C)p.r(C)p.r(A)p.r(A)p.r(A)p.r(G)p.r(A)p.r(A)p.r(G)p.r(C)p.r(T)p.r(T)}|RNA2{r(G)p.r(C)p.r(U)p.r(U)p.r(C)p.r(U)p.r(U)p.r(U)p.r(G)p.r(G)p.r(C)p.r(U)p.r(C)p.r(U)p.r(G)p.r(G)p.r(C)p.m(U)p.r(A)p.r(T)p.r(T)}$$$RNA1{StrandType:ss}|RNA2{StrandType:as}$" ?
# output 82%
